Tested on: OVCAR-5 ovarian
Assay: NCI tumour cell line growth inhibition, 48 h
property-label: TGI

| molecule | TGI |
| --- | --- |
| O=C1NCCCNCCCNCCCNC(=O)c2cccc1n2 | > 100 µM |
| O=C1O/C(=C(/Cl)c2cccc3ccccc23)c2ccccc21 | > 100 µM |
| CCOP(=O)(CN1CCNCCNCC1)OCC | > 100 µM |
| Cc1[nH]n(C2=NCCN2)c(=O)c1Cc1ccccc1 | > 100 µM |
| CC(=NNC(=S)Nc1ccc(C)cc1)c1cccc(C(C)=NNC(=S)Nc2ccc(C)cc2)n1 | > 100 µM |
| COc1ccc(-n2cc(-c3cc(OC)c(OC)c(OC)c3)[nH]c2=O)cc1Cl | > 100 µM |
| Cc1ccc2c(c1)C1(C)OC(C=CC1=O)O2 (centres undefined) | 4.46 µM |
| CCOC(=O)C(O)(NC(=O)c1ccc(F)cc1)C(F)(F)F (centres undefined) | > 100 µM |
| C=C1C(=O)O[C@H]2[C@H]1CC/C(COC(=O)c1cc3ccccc3s1)=C\CC[C@@]1(C)O[C@@H]21 | 4.35 µM |
| NC(N)=N/N=C/c1c(-c2cccc([N+](=O)[O-])c2)nc2n1CCS2 | > 100 µM |

// TGI value for O=C(/C=C\n1cnc(-c2cc(C(F)(F)F)cc(C(F)(F)F)c2)n1)NNc1cnccn1 : 16.3 µM

// TGI value for CC12CCC([C@H](C(O)C3CCCCC3)C1=O)C2(C)C (some centres undefined) : > 100 µM

// TGI value for N#Cc1c(-c2ccccc2)cc(Nc2cccc(C(F)(F)F)c2)n2c1nc1ccccc12 : 10.7 µM

// TGI value for COC(C(O)c1ccc2c(c1)OCO2)P(=O)(c1ccccc1)c1ccccc1 (centres undefined) : > 100 µM

// TGI value for CSc1nc2cc(S(=O)(=O)N3CCCCC3)ccc2s1 : > 100 µM

// TGI value for N#CCC(=O)NC1C2CC3CC(C2)CC1C3 (centres undefined) : 36.9 µM

// TGI value for O=C(O)Cc1cc(O)c(CC(=O)O)cc1O : > 100 µM

// TGI value for c1ccc(CSP234N5CCN2CCN3CCN4CC5)c(CSP234N5CCN2CCN3CCN4CC5)c1 : > 100 µM

// TGI value for CN(C)/C=N/S(=O)(=O)c1nn2c(C=O)c(-c3ccc(Cl)cc3)nc2s1 : 5.55 µM

----------
Consider the following molecules and their measured TGI readings.
Test system: UACC-62 melanoma
Experiment: NCI tumour cell line growth inhibition, 48 h
Where a SMILES comes first, the peptide text is derived from it. The star is where a group is joined. Cbz = O=C(OCc1ccccc1)*; Boc = CC(C)(C)OC(=O)*; tBu = CC(C)(C)*
Answer format: numeric, µM implied, no suffix.

Completed entries (count: 6):
| molecule | property-label | obs-value |
| --- | --- | --- |
| CCCCCN(CCCCC)CC(O)c1ccc(Cl)c2ccccc12 (configuration not stated) | TGI | 22.2 |
| Cc1nc(-c2ccccc2)c(-c2ccccc2)s1 | TGI | 56.8 |
| Clc1ccc(-c2c(C3=NCCCN3)nnn2-c2ccc(Cl)cc2)cc1 | TGI | 36 |
| N#C/C(=C\c1cc2ccccc2c2ccccc12)c1ccccc1 | TGI | 28.9 |
| N#Cc1c(Cl)c2cc([N+](=O)[O-])ccc2n2c1nc1ccccc12 | TGI | 35.4 |
| Cc1ccc2c3c(c(=O)[nH]c2c1)C1(C(C#N)=C(N)O3)c2cc(Br)ccc2-c2ccc(Br)cc21 | TGI | 11.3 |

// TGI value for COC(=O)C1C(=O)C=CN([C@H](C)c2ccccc2)[C@@H]1Cc1ccc(OC)c(OCc2ccccc2)c1I (some centres not stated) : 25.7

// TGI value for Cc1ccc(C(=O)Nc2ccc(CN3CCN(C)CC3)c(C(F)(F)F)c2)cc1C#Cc1cnc(N)c2ccccc12 : 1.25

// TGI value for CC(OC(C)(C)C)C(NC(=O)C(CCCCNC(=O)OC(C)(C)C)NC(=O)C(Cc1c[nH]c2ccccc12)NC(=O)C(Cc1ccccc1)NC(=O)OCc1ccccc1)C(=O)NC(Cc1ccccc1)C(=O)O (configuration not stated) (Cbz-FWK(Boc)T(tBu)F-OH; configuration not given here) : 67.9

----------
Consider the following molecules and their measured TGI readings.
System: COLO 205 colon
Assay: NCI tumour cell line growth inhibition, 48 h
Answer format: numeric, µM implied, no suffix.

// TGI value for Cc1ccc2c(c1)C1(C)OC(C=CC1=O)O2 (centres undefined) : 1.43

// TGI value for CS(=O)(=O)c1cc(=O)c2ccccc2s1 : 3.26

----------
Test system: CAKI-1 renal
Assay: NCI tumour cell line growth inhibition, 48 h
property-label: GI50

Completed entries (count: 2):
| entry-smiles | GI50 |
| --- | --- |
| O=C(/C(=C/c1cccc([N+](=O)[O-])c1)c1ccccc1)c1ccccc1 | 3180 nM |
| C/C(=N\Nc1ccc(Cl)cn1)c1ccccn1 | 45.2 nM |

Entry COc1ccccc1Cn1cc2c(c1-c1ccccc1)CCc1cnoc1-2 ; assay system CAKI-1 renal; GI50 recorded at 1860 nM

Entry CC[C@H](C)[C@H]1O[C@]2(C=C[C@@H]1C)C[C@@H]1C[C@@H](C/C=C(\C)[C@@H](O[C@H]3C[C@H](OC)[C@@H](O[C@H]4C[C@H](OC)[C@@H](NC)[C@H](C)O4)[C@H](C)O3)[C@@H](C)/C=C/C=C3\CO[C@@H]4[C@H](O)C(C)=C[C@@H](C(=O)O1)[C@]34O)O2 ; assay system CAKI-1 renal; GI50 recorded at 1890 nM

Entry O=S1(=O)N(CCNc2nccc(-c3c(-c4cccc(O)c4)nc4sccn34)n2)CCN1Cc1ccccc1 ; assay system CAKI-1 renal; GI50 recorded at 4400 nM

----------
Tested on: MDA-MB-435
Experiment: NCI tumour cell line growth inhibition, 48 h
property-label: TGI

Completed entries (count: 2):
| molecule | property-label | obs-value |
| --- | --- | --- |
| N#C/C(N)=C(\C#N)N=CN | TGI | > 100 µM |
| O=C1CCCC2(c3ccccc3)Nc3ccccc3N12 (centres undefined) | TGI | > 100 µM |

Entry CCn1c2ccccc2n2c(=O)c3c(c(C#N)c12)CCCC3 ; assay system MDA-MB-435; TGI recorded at > 100 µM

Entry O=c1[nH]nc(Cc2ccccc2)[nH]1 ; assay system MDA-MB-435; TGI recorded at > 100 µM

Entry Cc1ccc(-c2c3nc(c(-c4ccc(C)cc4)c4ccc([nH]4)c(-c4ccc(OCC5COC(C)(C)O5)cc4)c4nc(c(-c5ccc(C)cc5)c5ccc2[nH]5)C=C4)C=C3)cc1 (centres undefined) ; assay system MDA-MB-435; TGI recorded at > 31.6 µM

----------
System: UACC-257 melanoma
Assay: NCI tumour cell line growth inhibition, 48 h
Consider the following compounds and their measured TGI readings.

Completed entries (count: 5):
| compound | TGI |
| --- | --- |
| O=C1N[C@@H](c2c[nH]c3cc(Br)ccc23)C(=O)N[C@H]1c1c[nH]c2cc(Br)ccc12 | > 100 µM |
| COc1cc2c(cc1OC)CCc1cc(OC)c(OC)cc1CC2 | > 100 µM |
| O=C1NC2OCC(O)C(O)C2O1 (stereo unspecified) | > 100 µM |
| COc1ccc(-c2cc(=O)c3ccccc3[nH]2)c(OC)c1 | > 100 µM |
| CC1(C)N=C(N)N=C(N)N1c1ccc(OCc2ccc(S(=O)(=O)F)c(Cl)c2)c(Cl)c1 | > 100 µM |

Lab note: next compound to report on.
Entry CC(=O)Nc1ccc2[nH]c(C(=O)N3CC(CCl)c4c3cc(N)c3ccccc43)cc2c1 (stereo unspecified) ; assay system UACC-257 melanoma; TGI recorded at < 0.01 µM

----------
System: NCI-H23 lung
Assay: NCI tumour cell line growth inhibition, 48 h
Consider the following compounds and their measured TGI readings.

Completed entries (count: 2):
| entry-smiles | obs-value |
| --- | --- |
| COc1ccc(O)c(/C(C)=N/NC(=S)N(C)C)c1 | > 88.5 µM |
| CC1=CC(=O)N(n2c(Cc3ccccc3)n[nH]c2=O)C1=O | > 100 µM |

// TGI value for CCCCN1CSC(=S)N(Cc2ccccc2)C1 : > 100 µM

----------
Consider the following compounds and their measured TGI readings.
System: OVCAR-4 ovarian
Assay: NCI tumour cell line growth inhibition, 48 h

Completed entries (count: 10):
| compound | TGI |
| --- | --- |
| NC(=S)Nc1ccc(S(=O)(=O)Nc2ccc(S(N)(=O)=O)cc2)cc1 | > 100 µM |
| COc1ccc(-n2cc(-c3cc(OC)c(OC)c(OC)c3)[nH]c2=O)cc1Cl | > 100 µM |
| C/C=C(/C)C(=O)O[C@H]1C[C@@H]2[C@@H](O)c3occ(C)c3C[C@]2(C)[C@@H](C)C1 | 32.6 µM |
| C/C=C(\C)CC/C=C/CO[Si](C)(C)C(C)(C)C | > 100 µM |
| CC(C)N1CN(C(C(=O)N[C@@H]2C(=O)N3C2SC(C)(C)C3C(=O)O)c2ccccc2)CSC1=S (stereo not given in full) | > 100 µM |
| CCOC(=O)C(O)(NC(=O)c1ccc(F)cc1)C(F)(F)F (stereo not given) | > 100 µM |
| COc1ncc(-c2ccc3ncnc(Nc4cccc(Cl)c4)c3c2)cc1NS(=O)(=O)CCN1CCOCC1 | > 100 µM |
| C=C1C(=O)O[C@H]2[C@H]1CC/C(COC(=O)c1cc3ccccc3s1)=C\CC[C@@]1(C)O[C@@H]21 | 4.57 µM |
| CN(C)CCCN1c2ccccc2Sc2cnccc21 | > 100 µM |
| C=C(C)C1CCC2(C(=O)O)CCC3(C)C(CCC4C5(C)CCC(OC(=O)NCc6ccccc6)C(C)(C)C5CCC43C)C12 (stereo not given) | > 100 µM |

// TGI value for Cc1ccc(S(=O)(=O)OC(c2ccc(Cl)cc2Cl)C2OC(=O)c3ccccc32)cc1 (stereo not given) : > 100 µM

// TGI value for COC(C(O)c1ccc2c(c1)OCO2)P(=O)(c1ccccc1)c1ccccc1 (stereo not given) : 30.9 µM

// TGI value for COC/C=C\[C@]1(O)CCCC[C@@H]1CC(OC)OC : > 100 µM

// TGI value for C=C1CC[C@@H]2[C@](C)(COC(C)=O)[C@H](OC(C)=O)CC[C@@]2(C)[C@@H]1CC(Nc1ccc(S(=O)(=O)Nc2ncccn2)cc1)C1=CCOC1=O (stereo not given in full) : 5.26 µM

// TGI value for N#Cc1cccc(NC(=O)c2cc(-c3ccc(F)cc3F)ccc2O)c1 : 23 µM
